These data points were gathered from patent US7071220B2.

The following compounds are shown together with reported pIC50 values.
targetOfAssay: Human chymase (Homo sapiens)
Sequence (P23946 22-247): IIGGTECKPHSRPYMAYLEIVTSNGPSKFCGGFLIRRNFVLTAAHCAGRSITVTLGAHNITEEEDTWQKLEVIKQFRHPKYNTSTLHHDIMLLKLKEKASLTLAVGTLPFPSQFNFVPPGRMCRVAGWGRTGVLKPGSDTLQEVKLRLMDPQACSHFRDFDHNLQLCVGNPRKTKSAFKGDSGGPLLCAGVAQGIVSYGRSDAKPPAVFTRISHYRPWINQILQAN
experimentNotes: Measurement of inhibitory activity of human chymase (Ang I substrate, His-Leu/OPT fluorescence)
pIC50 (log units): -log10 of the concentration in mol/L.

Q: Returns the measured pIC50 for the input compound. Input: Cc1coc(-c2ccc(NS(=O)(=O)c3sc4ccc(F)cc4c3C)c(S(C)(=O)=O)c2)n1
Ans: 7.00

Q: Returns the measured pIC50 for the input compound. Input: COc1oc(-c2ccc(NS(=O)(=O)c3sc4ccc(F)cc4c3C)c(S(C)(=O)=O)c2)nc1C
Ans: 6.99

Q: Returns the measured pIC50 for the input compound. Input: Cc1c(S(=O)(=O)Nc2ccc(-c3nc(CO)cs3)cc2S(C)(=O)=O)sc2ccc(F)cc12
Ans: 7.70

Q: Returns the measured pIC50 for the input compound. Input: Cc1c(S(=O)(=O)Nc2ccc(-c3nc(CO)co3)cc2S(C)(=O)=O)sc2ccc(F)cc12
Ans: 7.41
